target: human B1R receptor (CHO K1 cells stably transfected with the human B1R gene) (Homo sapiens, UniProt P46663); construct: expressed in transfected cells; host or cells: CHO K1 cells (Chinese hamster ovary), stably transfected; experiment: Functional study on the bradykinin receptor 1 (B1R), Ca2+ fluorescence (Fluo-4) FLIPR/Novostar assay, hB1R cells; assay type: cell-based; conditions: CHO-K1, read-out: % inhibition (human B1R) at 10 μM
Sequence (P46663 whole entry): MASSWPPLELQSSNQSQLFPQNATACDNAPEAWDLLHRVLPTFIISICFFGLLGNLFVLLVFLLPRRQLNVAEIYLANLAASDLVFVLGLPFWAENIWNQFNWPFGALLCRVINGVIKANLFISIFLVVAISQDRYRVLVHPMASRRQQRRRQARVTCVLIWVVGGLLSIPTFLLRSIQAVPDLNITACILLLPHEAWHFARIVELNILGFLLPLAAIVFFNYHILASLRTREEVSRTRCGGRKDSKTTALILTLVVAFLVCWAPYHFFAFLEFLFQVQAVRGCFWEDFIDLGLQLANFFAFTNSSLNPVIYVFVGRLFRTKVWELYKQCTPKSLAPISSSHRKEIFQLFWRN
endpoint: inhibition at 10 µM (%)
Unit % implied. Number only.

Query block: Kindly indicate its recorded inhibition at 10 µM. Item: `Cc1cc(N2CCC(N(C)C(=O)c3ccc4c(c3)[C@H](N(C(=O)c3cc(F)ccc3Cl)C(C)C)CC4)CC2)nc(C)n1`
Result block: 82

Query block: Kindly indicate its recorded inhibition at 10 µM. Item: `Cc1cc(N2CCC(CCNC(=O)c3ccc4c(c3)[C@H](NC(=O)c3ccccc3Cl)CC4)CC2)ccn1`
Result block: 99

Query block: Kindly indicate its recorded inhibition at 10 µM. Item: `CN(C)c1cc(N2CCC(N(C)C(=O)c3ccc4c(c3)[C@H](NC(=O)c3ccccc3Cl)CC4)CC2)ccn1`
Result block: 100

Query block: Kindly indicate its recorded inhibition at 10 µM. Item: CN(C(=O)c1ccc2c(c1)[C@H](NC(=O)c1ccccc1Cl)CC2)C1CCN(c2ccncc2)C(=O)C1 (stereo partly shown)
Result block: 15

---

biological target: B1R receptor of the rat (CHO K1 cells stably transfected with the B1R gene of the rat) (Rattus norvegicus, UniProt P97583); construct: expressed in transfected cells; host or cells: CHO K1 cells (Chinese hamster ovary), stably transfected; test: Functional study on the bradykinin receptor 1 (B1R), Ca2+ fluorescence (Fluo-4) FLIPR/Novostar assay, rB1R cells; type: cell-based; settings: CHO-K1, 10 μM, read-out: % Inhibition (r-B1R) at 10 μM
Sequence (P97583 whole entry): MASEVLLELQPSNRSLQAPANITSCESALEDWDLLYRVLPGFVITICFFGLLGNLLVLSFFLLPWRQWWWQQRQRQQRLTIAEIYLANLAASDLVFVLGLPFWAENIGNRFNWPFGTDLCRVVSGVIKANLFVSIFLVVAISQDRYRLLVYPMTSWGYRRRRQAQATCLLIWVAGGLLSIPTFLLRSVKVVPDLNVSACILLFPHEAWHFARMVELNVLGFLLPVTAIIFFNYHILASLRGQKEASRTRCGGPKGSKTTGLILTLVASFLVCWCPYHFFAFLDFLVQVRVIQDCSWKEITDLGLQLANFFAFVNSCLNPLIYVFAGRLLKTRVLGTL
endpoint: inhibition at 10 µM (%)
Unit % implied. Number only.

Examples with their reported inhibition at 10 µM follow.
>>> measured_result("CN(C(=O)N(C)C1CCc2ccc(C(=O)N(C)C3CCN(c4ccncc4)CC3)cc21)c1ccccc1Cl (stereo not shown)")
90
>>> measured_result("CN(C(=O)c1ccc2c(c1)C(NC(=O)c1cccc(C(F)(F)F)c1Cl)CCC2)C1CCN(c2ccncc2)CC1 (stereo not shown)")
111
>>> measured_result("CN(C(=O)c1ccc2c(c1)C(NC(=O)c1cccc(Cl)c1Cl)CC2(C)C)C1CCN(c2ccncc2)CC1 (stereo not shown)")
100

# context switch: different compound, same inhibition at 10 µM
Query block: Kindly indicate its recorded inhibition at 10 µM. Item: Cc1cc(N2CCC(N(C)C(=O)c3ccc4c(c3)C(N(C)C(=O)C3CCCCC3)CC4)CC2)cc(C)n1 (stereo not shown)
Result block: 111

---

target: human B1R receptor (CHO K1 cells stably transfected with the human B1R gene) (Homo sapiens); construct: expressed in transfected cells; host or cells: CHO K1 cells (Chinese hamster ovary), stably transfected; assay: Functional study on the bradykinin receptor 1 (B1R), Ca2+ fluorescence (Fluo-4) FLIPR/Novostar assay, hB1R cells; type: cell-based; settings: CHO-K1, read-out: % inhibition (human B1R) at 10 μM
Note to self: values exactly at 90% are satisfied. So inhibition at 10 µM at or above 90% is satisfied, below is not satisfied.

>>> qualitative_label("CN(C(=O)c1ccc2c(c1)[C@H](NS(=O)(=O)c1ccccc1)CC2)C1CCN(c2ccncc2)CC1")
"satisfied"
>>> qualitative_label("CN(C(=O)c1ccc2c(c1)CC[C@H]2N1Cc2cccc(Cl)c2C1=O)C1CCN(c2ccncc2)CC1")
"satisfied"
>>> qualitative_label("CN(C(=O)c1ccc2c(c1)CC[C@H]2N1Cc2cccc(Cl)c2C1=O)C1CCN(c2ccccn2)CC1")
"not satisfied"
>>> qualitative_label("Cc1cc(N2CCC(N(C)C(=O)c3ccc4c(c3)[C@H](N(C(=O)c3ccccc3Cl)C(C)C)CC4)CC2)nc(C(C)C)n1")
"satisfied"
>>> qualitative_label("CN(C(=O)c1ccc2c(c1)CC[C@H]2N1Cc2cccc(Cl)c2C1=O)C1CCN(Cc2ccncc2)CC1")
"not satisfied"

Query block: hey, is inhibition at 10 µM for this one >= 90%? `CN(C)c1nccc(N2CCC(N(C)C(=O)c3ccc4c(c3)[C@H](NC(=O)c3ccccc3Cl)CC4)CC2)n1`
Result block: satisfied

Query block: hey, is inhibition at 10 µM for this one >= 90%? `CCN(C(=O)c1ccc2c(c1)[C@H](NC(=O)c1ccccc1Cl)CC2)C1CCN(c2cc(C)nc(C)n2)CC1`
Result block: satisfied

---

biological target: human B1R receptor (CHO K1 cells stably transfected with the human B1R gene) (Homo sapiens, UniProt P46663); construct: expressed in transfected cells; host or cells: CHO K1 cells (Chinese hamster ovary), stably transfected; assay: Functional study on the bradykinin receptor 1 (B1R), Ca2+ fluorescence (Fluo-4) FLIPR/Novostar assay, hB1R cells; type: cell-based; conditions: CHO-K1, read-out: % Inhibition (h-B1R) at 10 μM
endpoint: inhibition at 10 µM (%)
Unit % implied. Number only.

>>> measured_result("Cc1cccc(C)c1C(=O)NC1CCc2ccc(C(=O)NCCC3CCN(c4ccncc4)CC3)cc21 (centres unmarked) [CC_H-105]")
90

Query block: Kindly indicate its recorded inhibition at 10 µM. Item: O=C(NCCC1CCN(c2ccncc2)CC1)c1ccc2c(c1)C(NC(=O)c1cccc(Cl)c1Cl)CC2 (centres unmarked) [CC_H-74]
Result block: 96

Query block: Kindly indicate its recorded inhibition at 10 µM. Item: CN(C(=O)c1ccc2c(c1)C(NC(=O)c1cc(F)ccc1Cl)CC2(C)C)C1CCN(c2ccncc2)CC1 (centres unmarked) [CC_H-21]
Result block: 99

Query block: Kindly indicate its recorded inhibition at 10 µM. Item: O=C(NCCC1CCN(c2ccncc2)CC1)c1ccc2c(c1)C(NC(=O)c1ccccc1Cl)CC2 (centres unmarked) [CC_H-34]
Result block: 99

Query block: Kindly indicate its recorded inhibition at 10 µM. Item: Cc1cccc(C)c1C(=O)NC1CCc2cc(C(=O)N(C)C3CCN(c4ccncc4)CC3)ccc21 (centres unmarked) [CC_H-66]
Result block: 99

Query block: Kindly indicate its recorded inhibition at 10 µM. Item: CN(C(=O)NC1CCOc2ccc(C(=O)N(C)C3CCN(c4ccncc4)CC3)cc21)c1ccccc1Cl (centres unmarked) [CC_H-57]
Result block: 100

Query block: Kindly indicate its recorded inhibition at 10 µM. Item: CN(C(=O)c1ccc2c(c1)C(NC(=O)c1ccccc1Cl)CC2)C1CCN(c2ccncc2)CC1 (centres unmarked) [CC_H-24]
Result block: 100

Query block: Kindly indicate its recorded inhibition at 10 µM. Item: CN(C(=O)c1ccc2c(c1)C(NC(=O)C1CCCCC1)CCO2)C1CCN(c2ccncc2)CC1 (centres unmarked) [CC_H-38]
Result block: 99

---

// reported inhibition at 10 µM per item
Molecular target: human B1R receptor (CHO K1 cells stably transfected with the human B1R gene) (Homo sapiens, UniProt P46663)
Construct: expressed in transfected cells; host or cells: CHO K1 cells (Chinese hamster ovary), stably transfected
Assay: Functional study on the bradykinin receptor 1 (B1R), Ca2+ fluorescence (Fluo-4) FLIPR/Novostar assay, hB1R cells
Type: cell-based
Conditions: CHO-K1, read-out: % Inhibition (h-B1R) at 10 μM
Description: The agonistic or antagonistic action of substances can be quantified on the bradykinin receptor 1 (B1R) of the species human and rat using ectopically expressing cell lines (CHO K1 cells) and with the aid of a Ca^2+-sensitive dye (Fluo-4) using a fluorescent imaging plate reader (FLIPR). […] The agonistic or antagonistic action of substances can be determined on the bradykinin receptor 1 (B1R) of the species human and rat using the following assay. […]
Unit % implied. Number only.

>>> measured_result("CN(C(=O)c1ccc2c(c1)C(N(C)C(=O)C1CCCCC1)CC2)C1CCN(c2ccncc2)CC1 (stereo not shown)")
99
>>> measured_result("Cc1cccc(C)c1C(=O)NC1CCCc2ccc(C(=O)N(C)C3CCN(c4ccncc4)CC3)cc21 (stereo not shown)")
99
>>> measured_result("CN(C(=O)c1ccc2c(c1)C(NC(=O)c1cncnc1)CC2)C1CCN(c2ccc3cnccc3c2)CC1 (stereo not shown)")
81
>>> measured_result("CN(C(=O)c1ccc2c(c1)CCC2NS(=O)(=O)Cc1ccccc1C(F)(F)F)C1CCN(c2ccncc2)CC1 (stereo not shown)")
100
>>> measured_result("CN(C(=O)c1ccc2c(c1)C(N(C)C(=O)c1cccc(Cl)c1Cl)CC2)C1CCN(c2ccncc2)CC1 (stereo not shown)")
98
>>> measured_result("CN(C(=O)c1ccc2c(c1)C(N(C)C(=O)c1cc(F)ccc1Cl)CC2)C1CCN(c2ccncc2)CC1 (stereo not shown)")
100

# context switch: different compound, same inhibition at 10 µM
Query block: Kindly indicate its recorded inhibition at 10 µM. Item: CN(C(=O)c1ccc2c(c1)CCC2NS(=O)(=O)c1c(Cl)cccc1C(F)(F)F)C1CCN(c2ccncc2)CC1 (stereo not shown)
Result block: 100
